meta.source: patent US8513233B2

Molecular target: PPAR-γ (Homo sapiens, UniProt P37231)
Sequence (P37231 1-505): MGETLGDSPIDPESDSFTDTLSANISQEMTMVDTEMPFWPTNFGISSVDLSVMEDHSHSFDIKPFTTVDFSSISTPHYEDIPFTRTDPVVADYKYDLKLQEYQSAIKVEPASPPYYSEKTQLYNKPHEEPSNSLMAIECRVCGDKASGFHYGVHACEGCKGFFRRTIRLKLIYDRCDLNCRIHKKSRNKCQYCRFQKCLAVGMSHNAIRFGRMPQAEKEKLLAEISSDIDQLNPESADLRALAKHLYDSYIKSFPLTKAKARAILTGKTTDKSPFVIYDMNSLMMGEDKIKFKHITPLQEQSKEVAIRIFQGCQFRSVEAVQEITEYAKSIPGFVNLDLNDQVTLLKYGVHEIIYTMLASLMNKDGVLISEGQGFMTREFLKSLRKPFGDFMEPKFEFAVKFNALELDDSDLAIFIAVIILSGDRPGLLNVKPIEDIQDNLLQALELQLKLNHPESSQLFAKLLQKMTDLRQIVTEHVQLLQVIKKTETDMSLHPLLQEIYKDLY
Sequence (P19793 1-462 partner): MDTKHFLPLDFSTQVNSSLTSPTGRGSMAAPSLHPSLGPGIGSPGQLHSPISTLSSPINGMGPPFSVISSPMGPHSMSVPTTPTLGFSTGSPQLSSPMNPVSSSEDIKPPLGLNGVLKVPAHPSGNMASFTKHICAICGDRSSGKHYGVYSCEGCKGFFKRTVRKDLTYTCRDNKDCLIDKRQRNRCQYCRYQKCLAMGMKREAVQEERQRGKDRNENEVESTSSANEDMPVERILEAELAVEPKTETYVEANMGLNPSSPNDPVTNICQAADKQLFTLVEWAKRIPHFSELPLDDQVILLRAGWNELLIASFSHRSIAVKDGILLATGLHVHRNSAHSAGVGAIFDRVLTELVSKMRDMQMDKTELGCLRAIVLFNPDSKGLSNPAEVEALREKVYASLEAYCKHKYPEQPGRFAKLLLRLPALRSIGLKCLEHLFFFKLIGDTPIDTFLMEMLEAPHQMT
Assay: Transient transfection and transcription assay (luciferase reporter, U2OS cells)
Details: 24 h treatment
Description: cDNAs for Human RXR, PPAR were obtained by RTPCR from the human liver or adipose tissues. Amplified cDNAs were cloned into pcDNA3.1 expression vector and the inserts were confirmed by sequencing. […] Luciferase activity was monitored using the luciferase assay kit according to the manufacturers instructions. Light emission was read in a Labsystems Ascent Fluoroskan reader. […] Galactosidase assays were performed in the microwell plates using a kit from Promega and read in a microplate reader. […]
Measured pEC50, listed per entry for reference.
To interpret pEC50, take it as minus log10 of a concentration measured in moles per litre.

Examples from the recorded data:
compound | readout_label | reported
CCN(CC)c1nc(Oc2ccc(CC(C)(Oc3ccccc3)C(=O)O)cc2)cc(N2CCN(Cc3ccccc3)CC2)n1 (centres unmarked) | pEC50 | 5.15
CC(Cc1ccc(Oc2cc(N3CCN(c4ncccn4)CC3)nc(N)n2)cc1)(Oc1ccccc1)C(=O)O (centres unmarked) | pEC50 | 5.23

pEC50 of CN(C)c1nc(Oc2ccc(CC(C)(Oc3ccccc3)C(=O)O)cc2)cc(N2CCN(Cc3ccccc3)CC2)n1 (centres unmarked) on PPAR-γ (Homo sapiens, UniProt P37231)?
5.53
